Test Description: Inhibition of beta lactamase CTX-M assessed as hydrolysis of beta lactam by spectrometry analysis
The following compounds are shown together with reported Ki values.
Lab book: enter the figure in µM, no units written.

Check out these entries, answers already filled in.
[
  {
    "Molecule": "O=C(Nc1cccc(-c2nn[nH]n2)c1)[C@H](Sc1ccccc1)c1ccccc1",
    "Unit Info": "µM",
    "Ki": 12
  },
  {
    "Molecule": "c1ccc(COc2cccc(-c3nn[nH]n3)c2)cc1",
    "Unit Info": "µM",
    "Ki": 1000
  }
]

(Q) Endpoint output: Ki of `O=C1C[C@H](S(=O)(=O)O)c2ccccc2C1=O` . Value?
(A) 700

(Q) Endpoint output: Ki of `Nc1sc2c(c1-c1nn[nH]n1)CCCC2` . Value?
(A) 3000

(Q) Endpoint output: Ki of `O=C1C=C(S(=O)(=O)O)c2ccccc2C1=O` . Value?
(A) 1000

(Q) Endpoint output: Ki of `O=C(O)CN1C(=O)O[C@@H](c2ccccc2)C1=O` . Value?
(A) 700

(Q) Endpoint output: Ki of `Cn1cc(C(=O)Nc2cccc(-c3nn[nH]n3)c2)c2ccccc21` . Value?
(A) 10

---

Test Description: Inhibition of beta lactamase AmpC assessed as hydrolysis of beta lactam by spectrometry analysis
Assay Metric: Ki

(Q) Endpoint output: Ki of `O=C(O)CN1C(=O)O[C@@H](c2ccccc2)C1=O` . Value?
(A) 3.5 mM
